Attribution: PubChem BioAssay (NCI)

System: NCI/ADR-RES ovarian
procedure_text: NCI-60 one-dose screen, 48 h (100 = growth as untreated, 0 = no growth, -100 = all killed)
cond: 10 µM unless noted
About 83,000 compounds went through this panel and 20% of them were active in at least one assay; those are over-represented in the sample as a whole.
Cut-off 60% on growth, inclusive. At or above means yes; below means no.

{"compound": "Cn1c(C#N)ccc1-c1ccc(F)c(NC(=O)c2ccc(F)cc2)c1", "assigned_class": "yes"}
{"compound": "C/C=C1/CN(CCCCC)CC[C@H]1C(=O)c1cc2ccccc2[nH]1", "assigned_class": "yes"}
{"compound": "N#Cc1ccc(/C=C/c2cn(-c3ccccc3)nc2-c2cccc([N+](=O)[O-])c2)cc1", "assigned_class": "yes"}
{"compound": "Brc1ccc(Nc2nc(Nc3cnc4ccccc4c3)c3[nH]cnc3n2)cc1", "assigned_class": "yes"}
{"compound": "Nc1c(C(=O)Nc2cccc3ncccc23)sc2nc3c(cc12)CN(Cc1ccccc1)CC3", "assigned_class": "yes"}
{"compound": "Clc1ccc(Nc2nnc(CNc3ccccc3)c3ccccc23)cc1", "assigned_class": "no"}
{"compound": "Cc1cc(NCCCNc2ccnc3cc(Cl)ccc23)nc(Nc2ccc(C(=O)N3CCCCC3)cc2)n1", "assigned_class": "yes"}
{"compound": "CN1C(=O)N2CN3CCCN(C3)CN3C(=S)NC1C23 (stereo not given)", "assigned_class": "yes"}
{"compound": "COCCn1cc(-c2nc(-c3cn(CCOC)c4ncccc34)cs2)c2cc(F)ccc21", "assigned_class": "yes"}
{"compound": "COc1cc(Cc2cc(-c3ccccc3)nn(Cc3ccccc3)c2=O)cc(OC)c1OC", "assigned_class": "no"}

###

growth reference
System: IGROV1 ovarian
procedure_text: NCI-60 one-dose screen, 48 h (100 = growth as untreated, 0 = no growth, -100 = all killed)
cond: 10 µM unless noted
About 83,000 compounds went through this panel and 20% of them were active in at least one assay; those are over-represented in the sample as a whole. The source made the active and inactive calls. How the source made its calls: active means growth percent below 10; inactive means the rest.

{"molecule": "O=c1cc(C(F)(F)F)c2cc(-c3cc4ccccc4c(=O)o3)c(O)cc2o1", "growth": "92.6% (inactive)"}
{"molecule": "COc1ccc2c(c1)CC[C@@H]1[C@@H]2CC[C@]2(C)c3c(cc(C#N)c4c3sc3ccccc34)C[C@@H]12", "growth": "101% (inactive)"}
{"molecule": "O=CN1N=C(c2cccc(Nc3ccnc4cc(Cl)ccc34)c2)CC1c1ccc(Cl)cc1 (centres undefined)", "growth": "38.7% (inactive)"}
{"molecule": "CN1CCOCCN(C)Cc2ccc3ccc(cc3c2)CN(C)CCOCCN(C)Cc2ccc3ccc(cc3c2)C1", "growth": "74.8% (inactive)"}
{"molecule": "N#Cc1c(-c2ccc(Cl)cc2)nc(NN=Cc2ccc[nH]2)nc1N1CCOCC1", "growth": "67.9% (inactive)"}
{"molecule": "COC(=O)[C@@]12CC=C(C)[C@]3(C[C@H](c4ccoc4)OC3=O)[C@H]1C=C[C@@H](O)[C@@]2(O)C(=O)OC", "growth": "92.4% (inactive)"}
{"molecule": "Oc1ccc(-c2nc3ccc4[nH]ncc4c3c3c2CCCC3)c(F)c1", "growth": "22.9% (inactive)"}
{"molecule": "c1ccc2cc(Cn3cc(CSc4nc5ccccc5s4)nn3)ccc2c1", "growth": "93.9% (inactive)"}
{"molecule": "O=C(/C=C/c1cccc(Oc2ccccc2)c1)c1ccc(Nc2nc(Nc3ccc(F)cc3)nc(Nc3ccc(Cl)cc3)n2)cc1", "growth": "94% (inactive)"}

###

Tested on: SR leukemia
procedure_text: NCI-60 one-dose screen, 48 h
cond: 10 µM unless noted
About 83,000 compounds went through this panel and 20% of them were active in at least one assay; those are over-represented in the sample as a whole. The source made the active and inactive calls. How the source made its calls: active means growth percent below 10; inactive means the rest.
Outcomes: active, inactive

{"smiles_entry": "Cc1cc(O)c(=O)cc2c1C[C@H]1CC(C)(C)/C=C/C[C@]3(C)Oc4cc(=O)c(O)cc(C)c4C[C@H]3C[C@H](O)[C@@]1(C)O2", "assigned_class": "inactive"}
{"smiles_entry": "N#Cc1c(-c2ccc(Br)cc2)nc2c(N=Nc3ccc(S(N)(=O)=O)cc3)c(N)nn2c1N", "assigned_class": "inactive"}
{"smiles_entry": "O=c1oc2c(cc1-c1ccccc1)c(=O)[nH]c1ccccc12", "assigned_class": "inactive"}
{"smiles_entry": "Cc1nn(-c2ccc([N+](=O)[O-])cc2)c2ncnc(N/N=C/c3ccccc3O)c12", "assigned_class": "active"}
{"smiles_entry": "Cc1nc(N/N=C/c2cn(-c3ccccc3)nc2-c2cc3ccccc3oc2=O)sc1N=Nc1ccccc1", "assigned_class": "inactive"}
{"smiles_entry": "Fc1ccc2[nH]cc(-c3nc(-c4c[nH]c5c(Cl)nccc45)cs3)c2c1", "assigned_class": "inactive"}
{"smiles_entry": "Fc1ccc(/C=C/[C@@H]2C[C@@H](F)CCO2)cc1", "assigned_class": "inactive"}
{"smiles_entry": "COc1cc(/C=N/NC(=O)c2ccc(-n3cc(-c4ccccc4)nn3)cc2)cc(OC)c1OC", "assigned_class": "inactive"}
{"smiles_entry": "O=c1cc(CP(=O)(O)O)c2cc(O)c(-c3ccccc3)cc2o1", "assigned_class": "inactive"}

###

System: CAKI-1 renal
procedure_text: NCI-60 one-dose screen, 48 h
cond: 10 µM unless noted
The panel holds about 83,000 compounds, 20% with a hit somewhere; the sample as a whole holds those more often. Calls of active or inactive are those of the source. How the source made its calls: active means growth percent below 10; inactive means the rest.
Outcomes: yes (1) (active), no (0) (inactive)

{"compound": "COc1ccc(C2C3=C(COC3=O)N(CCO)c3cc4c(cc32)OCO4)cc1OC (centres undefined)", "system_tested": "CAKI-1 renal", "assigned_class": "no (0)"}
{"compound": "Clc1ccc(Nc2ncc(Cc3cccc(Cl)c3Cl)s2)cc1", "system_tested": "CAKI-1 renal", "assigned_class": "no (0)"}
{"compound": "CN1C(=O)N2CN3CCCN(C3)CN3C(=S)NC1C23 (centres undefined)", "system_tested": "CAKI-1 renal", "assigned_class": "no (0)"}
{"compound": "O=C(/C=C/c1ccccc1Cl)c1cccc(OCCCCOc2cccc(C(=O)/C=C/c3ccccc3Cl)c2)c1", "system_tested": "CAKI-1 renal", "assigned_class": "no (0)"}
{"compound": "C=C1C(=O)O[C@H]2[C@H]1CC/C(COC(=O)NCc1ccc(Cn3c(=O)sn(-c4ccc(I)cc4)c3=O)cc1)=C\\CC[C@@]1(C)O[C@@H]21", "system_tested": "CAKI-1 renal", "assigned_class": "no (0)"}
{"compound": "O=S(=O)(N=C1C(Cl)=C(Cl)C(=NS(=O)(=O)c2ccccc2)C(Cl)=C1Cl)c1ccccc1", "system_tested": "CAKI-1 renal", "assigned_class": "yes (1)"}
{"compound": "C=C1CC[C@@H]2C(C)(C)[C@H](O)CC[C@@]2(C)[C@@H]1COc1ccc2ccc(=O)oc2c1", "system_tested": "CAKI-1 renal", "assigned_class": "no (0)"}
{"compound": "CN(C)C1CN(C(=O)c2cc(-c3ccc4ncnc(N5CCc6cc(F)c(Cl)cc65)c4c3)cnc2N)C1", "system_tested": "CAKI-1 renal", "assigned_class": "yes (1)"}
{"compound": "O=C(Nc1cccnc1Nc1ccc(Cl)cc1)c1cn(Cc2cccc(Oc3ccccc3)c2)nn1", "system_tested": "CAKI-1 renal", "assigned_class": "no (0)"}
